The reported numbers originate from paper PMC7717620.

tested on: human cardiomyocytes; experiment: recording of human cardiomyocyte beating patterns; format: cell-based; conditions: 2 μM, 2 h
Record form. Attribute: Beating rate of human cardiomyocytes. Fill in for each entry.
Answers without a unit are incomplete; give the number and then its unit.

Known Beating rate of human cardiomyocytes results, listed for orientation:
[
  {
    "compound": "COc1nc(N)nc2c1ncn2[C@@H]1O[C@H](COP(=O)(N[C@@H](C)C(=O)OCC(C)(C)C)Oc2cccc3ccccc23)[C@@H](O)[C@@]1(C)O (stereo partly shown)",
    "experimental.target": "human cardiomyocytes",
    "Beating rate of human cardiomyocytes": "31.0 ± 0 beats/minute"
  },
  {
    "compound": "CC(C)OC(=O)[C@H](C)N[P@](=O)(OC[C@H]1O[C@@H](n2ccc(=O)[nH]c2=O)[C@](C)(F)[C@@H]1O)Oc1ccccc1",
    "experimental.target": "human cardiomyocytes",
    "Beating rate of human cardiomyocytes": "36.5 ± 2.1 beats/minute"
  },
  {
    "compound": "CC(C)(CO)C(=O)SCCOP(=O)(NCc1ccccc1)OC[C@H]1O[C@@H](n2cnc3c(=O)[nH]c(N)nc32)[C@](C)(O)[C@@H]1O (mixture of isomers)",
    "experimental.target": "human cardiomyocytes",
    "Beating rate of human cardiomyocytes": "32.0 ± 0 beats/minute"
  }
]

Pending compound:
Query :: Item under review: CC(C)OC(=O)CCc1ccccc1OP(=O)(N[C@@H](C)C(=O)OC(C)C)OC[C@H]1O[C@@H](n2cnc3c(N)nc(N)nc32)[C@](C)(O)[C@@H]1O (stereo partly shown) . Reported Beating rate of human cardiomyocytes?
Result :: 33.5 ± 0.7 beats/minute

====

tested on: human cardiomyocytes; test: recording of human cardiomyocyte beating patterns; format: cell-based; conditions: 10 μM, 2 h
measured.quantity: Beating rate of human cardiomyocytes (beats/minute)
Numbers only, in beats/minute.

Known Beating rate of human cardiomyocytes results, listed for orientation:
[
  {
    "molecule": "COc1nc(N)nc2c1ncn2[C@@H]1O[C@H](COP(=O)(N[C@@H](C)C(=O)OCC(C)(C)C)Oc2cccc3ccccc23)[C@@H](O)[C@@]1(C)O (stereo partly shown)",
    "Beating rate of human cardiomyocytes / beats/minute": 31.0
  },
  {
    "molecule": "CC(C)OC(=O)[C@H](C)N[P@](=O)(OC[C@H]1O[C@@H](n2ccc(=O)[nH]c2=O)[C@](C)(F)[C@@H]1O)Oc1ccccc1",
    "Beating rate of human cardiomyocytes / beats/minute": 34.0
  },
  {
    "molecule": "CC(C)OC(=O)CCc1ccccc1OP(=O)(N[C@@H](C)C(=O)OC(C)C)OC[C@H]1O[C@@H](n2cnc3c(N)nc(N)nc32)[C@](C)(O)[C@@H]1O (stereo partly shown)",
    "Beating rate of human cardiomyocytes / beats/minute": 24.5
  }
]

Query :: Item under review: CC(C)(CO)C(=O)SCCOP(=O)(NCc1ccccc1)OC[C@H]1O[C@@H](n2cnc3c(=O)[nH]c(N)nc32)[C@](C)(O)[C@@H]1O (mixture of isomers) . Reported Beating rate of human cardiomyocytes?
Result :: 30.0

====

tested on: human cardiomyocytes; assay: recording of human cardiomyocyte beating patterns; format: cell-based; conditions: 50 μM, 8 h
measured.quantity: Beating rate of human cardiomyocytes (beats/minute)
One number for each entry, in beats/minute.

Known Beating rate of human cardiomyocytes results, listed for orientation:
[
  {
    "molecule": "CC(C)OC(=O)CCc1ccccc1OP(=O)(N[C@@H](C)C(=O)OC(C)C)OC[C@H]1O[C@@H](n2cnc3c(N)nc(N)nc32)[C@](C)(O)[C@@H]1O (stereo partly shown) [DAPN-PD]",
    "reading.unit": "beats/minute",
    "recorded.result": 22.0
  },
  {
    "molecule": "CC(C)(CO)C(=O)SCCOP(=O)(NCc1ccccc1)OC[C@H]1O[C@@H](n2cnc3c(=O)[nH]c(N)nc32)[C@](C)(O)[C@@H]1O (mixture of isomers) [IDX-184]",
    "reading.unit": "beats/minute",
    "recorded.result": 34.5
  },
  {
    "molecule": "CC(C)OC(=O)[C@H](C)N[P@](=O)(OC[C@H]1O[C@@H](n2ccc(=O)[nH]c2=O)[C@](C)(F)[C@@H]1O)Oc1ccccc1 [Sofosbuvir, sofosbuvir]",
    "reading.unit": "beats/minute",
    "recorded.result": 34.5
  }
]

Pending molecule:
Query :: Item under review: COc1nc(N)nc2c1ncn2[C@@H]1O[C@H](COP(=O)(N[C@@H](C)C(=O)OCC(C)(C)C)Oc2cccc3ccccc23)[C@@H](O)[C@@]1(C)O (stereo partly shown) [BMS-986094] . Reported Beating rate of human cardiomyocytes?
Result :: 0
